// reported In Vivo LVh 3 mg·kg 8 h (remaining FAAH activity, % of control) per item
- SYSTEM UNDER TEST: FAAH (Mus musculus)
- Construct: A fragment of liver, left lung lobe and brain without cerebellum were removed; from tissue; host or cells: male NMRI mice; brain (without cerebellum) and liver homogenates
- Sequence (O08914 whole entry, the tested form may be a part): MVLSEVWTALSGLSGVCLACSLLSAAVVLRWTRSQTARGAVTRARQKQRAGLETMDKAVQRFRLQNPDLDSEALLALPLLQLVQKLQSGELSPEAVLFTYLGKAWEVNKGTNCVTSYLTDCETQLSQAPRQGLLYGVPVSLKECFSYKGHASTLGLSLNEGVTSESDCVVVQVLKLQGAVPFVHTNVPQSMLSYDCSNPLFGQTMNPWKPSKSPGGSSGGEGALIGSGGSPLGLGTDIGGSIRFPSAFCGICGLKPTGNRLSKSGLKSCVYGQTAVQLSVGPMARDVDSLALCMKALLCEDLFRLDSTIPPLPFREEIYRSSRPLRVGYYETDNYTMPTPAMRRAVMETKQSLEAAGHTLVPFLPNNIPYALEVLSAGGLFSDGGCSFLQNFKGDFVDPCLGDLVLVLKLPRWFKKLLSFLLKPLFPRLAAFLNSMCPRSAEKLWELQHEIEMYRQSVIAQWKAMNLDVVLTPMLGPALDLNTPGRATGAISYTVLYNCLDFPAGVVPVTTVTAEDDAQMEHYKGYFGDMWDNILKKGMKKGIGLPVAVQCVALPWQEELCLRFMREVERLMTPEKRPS
- ASSAY NAME: In vivo FAAH inhibition after oral dosing, remaining activity in liver homogenate (LVh, peripheral tissue)
- Parameters: species or system NMRI mice
- COND: liver homogenate, 3 mg/kg, 8 h after dosing; low value = strong inhibitor
- Method: The in vivo test was performed according to the protocol described below. BRh indicates inhibition in central nervous tissue and LVh indicates inhibition in peripheral tissue, in this case liver. […] Total protein in tissues was determined with the BioRad Protein Assay (BioRad) using a standard curve of BSA (50-250 μg/ml). […] The percentage of remaining enzymatic activity was calculated in respect to controls and after blank subtraction.

Please review the entries below; each comes with its answer.
> print(dat)
                                   molecule         assay.value
1  CN(C(=O)n1cnc(-c2ccc[n+]([O-])c2)c1)C1CCN(Cc2ccccc2)CC1 [Compound no. 459]    1.9 % of control
2  Cc1nc(-c2ccccc2)nn1C(=O)N(C)C1CCCCC1 [Compound 284]  145.6 % of control

Ask: Form: Entry = CN(C(=O)n1cnc(-c2ccc(O)c(F)c2)c1)C1CCCCC1 [Compound 330] | System = FAAH (Mus musculus) | In Vivo LVh 3 mg·kg 8 h (remaining FAAH activity, % of control) = ____
Reply: 11.1 % of control

Ask: Form: Entry = COc1cc(-c2cn(C(=O)N(C)C3CCCCC3)cn2)ccc1F [Compound 319] | System = FAAH (Mus musculus) | In Vivo LVh 3 mg·kg 8 h (remaining FAAH activity, % of control) = ____
Reply: 2 % of control

Ask: Record lookup: for FAAH (Mus musculus), what In Vivo LVh 3 mg·kg 8 h (remaining FAAH activity, % of control) belongs to Br.CN(C(=O)n1cnc(-c2ccc(O)c(O)c2)c1)C1CCN(Cc2ccccc2)CC1 [Compound no. 465] ?
Reply: 3.1 % of control

Ask: What value of In Vivo LVh 3 mg·kg 8 h (remaining FAAH activity, % of control) on FAAH (Mus musculus) does COc1ccc(-c2cn(C(=O)N(C)C3CCN(Cc4ccccc4)CC3)cn2)cc1 [Compound no. 419] have?
Reply: 1 % of control

Ask: Lab request: please report In Vivo LVh 3 mg·kg 8 h (remaining FAAH activity, % of control) under test system FAAH (Mus musculus) for COc1cc(-c2cn(C(=O)N3COCC3(C)C)cn2)ccc1F [Compound 351]
Reply: 11.7 % of control

Ask: Request body: readout In Vivo LVh 3 mg·kg 8 h (remaining FAAH activity, % of control), system FAAH (Mus musculus), query CN(C(=O)n1cnc(-c2ccc(S(=O)(=O)N3CCC(O)CC3)cc2)c1)C1CCCCC1 [Compound no. 432] . Return the value.
Reply: 65.5 % of control

###

- SYSTEM UNDER TEST: FAAH (Mus musculus)
- Construct: A fragment of liver, left lung lobe and brain without cerebellum were removed; from tissue; host or cells: male NMRI mice; brain (without cerebellum) and liver homogenates
- ASSAY NAME: In vivo FAAH inhibition after oral dosing, remaining activity in brain homogenate (BRh, central nervous tissue)
- Design: species or system NMRI mice
- COND: brain homogenate, 3 mg/kg, 8 h after dosing; low value = strong inhibitor
ATTRIBUTE MEASURED: In Vivo BRh 3 mg·kg 8 h (remaining FAAH activity, % of control)

Ask: Reported In Vivo BRh 3 mg·kg 8 h (remaining FAAH activity, % of control), compound `CC1(C)COCN1C(=O)n1nnc2c(F)cc(F)cc21` : ____
Reply: 3.1 % of control

###

- Tested on: carboxylesterase (CE)
- ASSAY NAME: Carboxylesterase (CE) activity in mouse liver microsomes (LVms), p-nitrophenyl acetate
- Assay type: biochemical
- COND: 10 uM compound, read 10 min after substrate, remaining CE activity
CE Mou LVms 10 uM 10 min reference

Check out these entries, answers already filled in.
> print(dat)
                                item.smiles        attribute.measured        assay.value
1  CN(C(=O)n1cnc(-c2ccc3oc(=O)[nH]c3c2)c1)C1CCCC1  CE Mou LVms 10 uM 10 min  87.4 % of control
2           O=C(NCCCCc1ccccc1)n1nnc2ccccc21  CE Mou LVms 10 uM 10 min    31 % of control
3        CN(C(=O)n1nnc2cc(Br)ccc21)C1CCCCC1  CE Mou LVms 10 uM 10 min  50.7 % of control

Ask: Record lookup: for carboxylesterase (CE), what CE Mou LVms 10 uM 10 min belongs to `COc1ccc(N(C)C(=O)n2cnc(-c3ccc4ccccc4c3)c2)cc1` ?
Reply: 95.4 % of control

Ask: Missing value: CE Mou LVms 10 uM 10 min, carboxylesterase (CE), entry `COc1cccc(-c2cn(C(=O)N3CCCc4ccccc43)cn2)c1` . Fill in?
Reply: 84.3 % of control

Ask: Observed CE Mou LVms 10 uM 10 min on carboxylesterase (CE) for `CN(C(=O)n1cnc(-c2ccc(S(C)(=O)=O)cc2)c1)C1CCN(Cc2ccccc2)CC1` , please.
Reply: 88.6 % of control

###

- SYSTEM UNDER TEST: FAAH (Mus musculus)
- Construct: A fragment of liver, left lung lobe and brain without cerebellum were removed; from tissue; host or cells: male NMRI mice; brain (without cerebellum) and liver homogenates
- ASSAY NAME: In vivo FAAH inhibition after oral dosing, remaining activity in liver homogenate (LVh, peripheral tissue)
- Design: species or system NMRI mice
- COND: liver homogenate, 3 mg/kg, 8 h after dosing; low value = strong inhibitor
ATTRIBUTE MEASURED: In Vivo LVh 3 mg·kg 8 h (remaining FAAH activity, % of control)

See these solved cases before continuing.
> print(dat)
                                   compound        assay.value
1  COc1ccc(-c2cn(C(=O)N(C)C3CCNCC3)cn2)cc1N [Compound no. 450]  65.4 % of control
2  Cc1nc(-c2ccccc2)cn1C(=O)N(C)C1CCCCC1 [Compound 279]  94.1 % of control
3  CC1(C)COCN1C(=O)n1cnc(-c2ccc(O)c(N)c2)c1.Cl [Compound no. 358]  81.2 % of control
4  CN(C(=O)n1cnc(-c2cccc(O)c2)c1)C1CCCCC1 [Compound 307]  10.1 % of control
5  CC1(C)COCN1C(=O)n1nnc2c(F)cc(F)cc21 [Compound no. 360]   3.7 % of control
6  CC1(C)COCN1C(=O)n1nnc2cc(C(=O)NO)ccc21 [Compound no. 440]   3.3 % of control
7  CC1(C)OC(c2ccccc2)CN1C(=O)n1cnc(-c2ccccc2)c1 (stereo not drawn) [Compound 298]  59.2 % of control
8  CN(C(=O)n1nnc2ccccc21)C1CCN(Cc2ccccc2)CC1.Cl [Compound no. 492]   0.7 % of control

Now look at this one.
Ask: Requested field: In Vivo LVh 3 mg·kg 8 h (remaining FAAH activity, % of control). Item: CN(C(=O)n1cnc(-c2ccc(F)c(O)c2)c1)C1CCCC1 [Compound 344]
Reply: 2.1 % of control

###

- SYSTEM UNDER TEST: FAAH (Rattus norvegicus)
- Construct: Frozen brains (without cerebellum) from Wistar rats were used; from tissue; host or cells: Wistar rat brain (without cerebellum), washed membrane pellets
- Sequence (P97612 whole entry): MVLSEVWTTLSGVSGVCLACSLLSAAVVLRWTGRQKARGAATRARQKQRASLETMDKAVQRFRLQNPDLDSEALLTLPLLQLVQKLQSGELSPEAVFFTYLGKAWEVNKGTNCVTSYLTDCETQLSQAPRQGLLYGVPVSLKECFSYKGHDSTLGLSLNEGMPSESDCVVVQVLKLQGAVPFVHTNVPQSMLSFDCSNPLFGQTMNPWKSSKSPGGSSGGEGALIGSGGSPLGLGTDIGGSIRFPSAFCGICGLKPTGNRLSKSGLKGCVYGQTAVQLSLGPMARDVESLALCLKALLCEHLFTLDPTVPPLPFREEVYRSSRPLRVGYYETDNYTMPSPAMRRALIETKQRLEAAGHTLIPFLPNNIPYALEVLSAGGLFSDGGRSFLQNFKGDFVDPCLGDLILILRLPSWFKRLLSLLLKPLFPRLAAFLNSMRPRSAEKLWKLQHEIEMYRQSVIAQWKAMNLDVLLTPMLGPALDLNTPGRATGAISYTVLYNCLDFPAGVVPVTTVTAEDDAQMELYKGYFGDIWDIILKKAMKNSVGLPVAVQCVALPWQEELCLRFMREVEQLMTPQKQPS
- ASSAY NAME: In vitro FAAH activity in rat brain membranes, 3H-AEA substrate, % of control
- Assay type: biochemical, Wistar rats
- COND: rat brain membranes, compound at 100 nM, low value = strong inhibitor
ATTRIBUTE MEASURED: In Vitro 100 nM (FAAH activity, % of control)

Reference set, count: 8
> print(dat)
                                item.smiles         assay.value
1   CN(C(=O)n1cnc(-c2ccc(Cl)cc2)c1)C1CCCCC1   72.1 % of control
2      CC1(C)COCN1C(=O)n1cnc(-c2ccccc2)c1Cl   99.2 % of control
3  COc1ccc(-c2cn(C(=O)N(C)C3CCCCC3)cn2)cc1F   84.3 % of control
4      Cc1nc(-c2ccccc2)nn1C(=O)N(C)C1CCCCC1  146.2 % of control
5   COc1cc(-c2cn(C(=O)N3COCC3(C)C)cn2)ccc1F   95.6 % of control
6  CC1(C)COCN1C(=O)n1cnc(-c2ccc(F)c(O)c2)c1   81.9 % of control
7  CN(C(=O)n1cnc(-c2ccc(O)c(F)c2)c1)C1CCCC1    3.6 % of control
8  CN(C(=O)n1cnc(-c2cccc([N+](=O)[O-])c2)c1)C1CCCCC1   43.8 % of control

Ask: # input compound: `CN(C(=O)n1cnc(-c2cccc(O)c2)c1)C1CCCCC1` ; wanted: its In Vitro 100 nM (FAAH activity, % of control)
Reply: 56.2 % of control

Ask: Look at this compound and give its reported In Vitro 100 nM (FAAH activity, % of control). `CN(C(=O)n1cnc(-c2ccc(F)cc2)c1)C1CCCCC1`
Reply: 65.1 % of control
